Origin of measurements: patent US11291642B2

assay: Particle size of dimethyl fumarate by Malvern laser diffraction; type: physicochemical; details: Table 1
Structures can show the parent of a compound that is named as a salt.
Assign D × 97 (μm) to each entry below.
Value expressed in μm; do not type the unit.

Tell me the measured D × 97 (μm) of COC(=O)/C=C/C(=O)OC [Batch A14DS0977, dimethyl fumarate] , please.
319

Which D × 97 (μm) value belongs to COC(=O)/C=C/C(=O)OC [Batch A14DS1097, dimethyl fumarate] ?
257

Looking for the measured D × 97 (μm) of COC(=O)/C=C/C(=O)OC [2014-4281-A.9, dimethyl fumarate] , can you help?
210

What D × 97 (μm) value was documented for this molecule, COC(=O)/C=C/C(=O)OC [2014-4281-A.4, dimethyl fumarate] ?
235

Which measured D × 97 (μm) value corresponds to COC(=O)/C=C/C(=O)OC [2014-4281-A.8, dimethyl fumarate] ?
208

Requested field: D × 97 (μm). Item: COC(=O)/C=C/C(=O)OC [Batch 11P1310, dimethyl fumarate]
97

Requested field: D × 97 (μm). Item: COC(=O)/C=C/C(=O)OC [Batch A14DS0978, dimethyl fumarate]
294

---

test: FT4 Powder Rheometer dynamic testing (flow rate index, specific energy); format: physicochemical; conditions: FT4, Table 2; no unit printed in table (mJ/g)
Counter-ions that a name gives are not always drawn.
Quantity Measured: Specific Energy
Write the value as a bare number.

Entry under review: COC(=O)/C=C/C(=O)OC [Batch A14DS1097, dimethyl fumarate] . Reported Specific Energy?
9.19

Recorded Specific Energy for COC(=O)/C=C/C(=O)OC [2014-4281-A.8, dimethyl fumarate] , please?
6.64

Specific Energy lookup needed for COC(=O)/C=C/C(=O)OC [2014-4281-A.4, dimethyl fumarate] , thanks.
4.87

Could you tell me which Specific Energy is on file for COC(=O)/C=C/C(=O)OC [2014-4281-A.9, dimethyl fumarate] ?
6.42

Look at this molecule and give its reported Specific Energy. COC(=O)/C=C/C(=O)OC [Batch B1417-140304, dimethyl fumarate]
5.48

Given the molecule COC(=O)/C=C/C(=O)OC [Batch A14DS0978, dimethyl fumarate] , what is its reported Specific Energy?
8.67

---

assay: Particle size of dimethyl fumarate by Malvern laser diffraction; format: physicochemical; details: Table 1
Counter-ions that a name gives are not always drawn.
hey, just use t if measured D × 90 (μm) is less than 200 μm, otherwise f

Criterion: D × 90 (μm) strictly below 200 μm. Is it met by COC(=O)/C=C/C(=O)OC [2014-4281-A.8, dimethyl fumarate] ?
t

is_below(D × 90 (μm), 200 μm) for COC(=O)/C=C/C(=O)OC [2014-4281-A.4, dimethyl fumarate] ?
t

Check if D × 90 (μm) falls below 200 μm for COC(=O)/C=C/C(=O)OC [Batch A14DS1097, dimethyl fumarate] .
t

Determine if COC(=O)/C=C/C(=O)OC [2014-4281-A.9, dimethyl fumarate] shows D × 90 (μm) strictly lower than 200 μm.
t

Say whether its D × 90 (μm) is strictly beneath 200 μm. Entry: COC(=O)/C=C/C(=O)OC [Batch 11P1310, dimethyl fumarate]
t

Could you please tell me whether D × 90 (μm) recorded for COC(=O)/C=C/C(=O)OC [Batch A14DS0978, dimethyl fumarate] is less than 200 μm?
f

Input COC(=O)/C=C/C(=O)OC [Batch A14DS0977, dimethyl fumarate] ; condition: D × 90 (μm) strictly below 200 μm. Does it hold?
f
